Listing of recorded IC50 by entry.
# tested-target: 5HT3a receptor expressed in HEK-293T cells (Homo sapiens (Human))
# Sequence (P46098 24-478): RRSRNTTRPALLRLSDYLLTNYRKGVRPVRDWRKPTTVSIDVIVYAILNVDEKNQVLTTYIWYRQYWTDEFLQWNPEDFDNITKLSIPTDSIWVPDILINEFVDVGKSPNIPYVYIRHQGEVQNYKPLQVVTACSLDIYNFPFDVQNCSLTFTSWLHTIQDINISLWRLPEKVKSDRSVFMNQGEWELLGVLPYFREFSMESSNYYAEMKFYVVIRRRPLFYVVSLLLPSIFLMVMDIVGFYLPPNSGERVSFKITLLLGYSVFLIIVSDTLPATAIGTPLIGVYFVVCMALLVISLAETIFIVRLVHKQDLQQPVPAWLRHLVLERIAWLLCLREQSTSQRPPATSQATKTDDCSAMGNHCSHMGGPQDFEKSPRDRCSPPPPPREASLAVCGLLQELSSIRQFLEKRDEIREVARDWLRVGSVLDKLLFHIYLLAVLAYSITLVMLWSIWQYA
# experiment: Inhibition of Ca flux activity of 5HT3 in vitro assay
# Format: cell-based
# test-settings: calcium flux, 5HT 216 nM, approximate values
Structures can show the parent of a compound that is named as a salt.

Below: 4 compounds and their reported IC50.
compound	IC50
CN(C(=O)c1cn(-c2cnsc2)c2ccccc12)C1C[C@H]2COC[C@@H](C1)N2C (some centres unmarked) [Example 186]	1.5 nM
CN1C2COCC1CC(NC(=O)c1cn(-c3ccsn3)c3ccccc13)C2 (centres unmarked) [Example 153, trifluoroacetic acid salt]	0.87 nM
CN1C2CCCC1CC(OC(=O)c1cn(CC(F)F)c3ncccc13)C2 (centres unmarked) [Example 61]	1 nM
O=C(OC1CC2COCC(C1)N2)c1cn(-c2cnccn2)c2ccccc12 (centres unmarked) [Example 141, trifluoroacetic acid salt]	1.12 nM

Here's the next entry for you.
Suppose we examine the compound CN1[C@@H]2COC[C@H]1C[C@@H](OC(=O)c1cn(CC(F)F)c3ncccc13)C2 [Example 48] ; what IC50 value has been reported?
0.84 nM

====

# tested-target: 5HT3a receptor expressed in HEK-293T cells (Homo sapiens (Human))
# experiment: Inhibition of Ca flux activity of 5HT3 in vitro assay
# test-settings: calcium flux, 5HT 216 nM, approximate values
Listing of recorded IC50 by entry.

Below: 2 molecules and their reported IC50.
molecule	IC50
O=C(N[C@@H]1CN2CCC1CC2)c1cn(CC(F)F)c2ncccc12	> 1 µM
O=C(O[C@H]1CC[N@@]2CCO[C@@H]1C2)c1cn(CC(F)F)c2ccc(F)cc12	> 1 µM

Suppose we examine the molecule CN1C2CCC1CC(NC(=O)c1cn(CC(F)(F)F)c3ncccc13)C2 (stereo not drawn) ; what IC50 value has been reported?
> 1 µM

Data provenance is patent US9303045B2.
